Target: T1, human IL-17A (human, UniProt Q16552 20-155, limits assumed)
T1 construct: Bought from R&D Systems; also called IL-17 antigen (human IL17A)
T1 sequence (looked up): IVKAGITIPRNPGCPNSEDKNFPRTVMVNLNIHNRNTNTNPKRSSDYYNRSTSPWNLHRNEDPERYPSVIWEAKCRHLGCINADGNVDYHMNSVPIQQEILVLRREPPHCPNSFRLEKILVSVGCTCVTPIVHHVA
Assay: blocking ELISA, IL-17RC coated; antibody 1 ug/ml pre-mixed with human IL-17A 0.1 ug/ml; bound IL-17A detected
ASSAY_METRIC: OD450 (OD450)

1) PP10760 (antibody, human IgG4 S228P, kappa, V domains shown, Humanized, human IgG4/kappa; also called VH6665/VL6665) VH: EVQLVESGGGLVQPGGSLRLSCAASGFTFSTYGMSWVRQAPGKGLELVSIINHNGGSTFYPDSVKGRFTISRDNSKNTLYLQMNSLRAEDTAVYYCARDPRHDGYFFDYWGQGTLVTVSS VL: DIQMTQSPSSLSASVGDRVTITCQASEDIYDRLAWYQQKPGKAPKLLISGATSLETGVPSRFSGSGSGTDYTFTISSLQPEDIATYYCQQYWSVPWTFGGGTKVEIKR    0.0762
2) PP10767 (antibody, human IgG4 S228P, kappa, V domains shown, Humanized, human IgG4/kappa; also called VH6667/VL6666) VH: EVQLVESGGGVVQPGRSLRLSCAASGFTFSTYGMSWVRQAPGKGLELVAIINHNGGSTFYPDSVKGRFTISRDNSKNTLYLQMNSLRAEDTAVYYCARDPRHDGYFFDYWGQGTLVTVSS VL: DIQMTQSPSSLSASVGDRVTITCQASEDIYDRLAWYQQKPGKAPKLLISGATSLETGVPSRFSGSGSGKDYTFTISSLQPEDIATYYCQQYWSVPWTFGGGTKVEIKR    0.0684
3) PP10768 (antibody, human IgG4 S228P, kappa, V domains shown, Humanized, human IgG4/kappa; also called VH6667/VL6667) VH: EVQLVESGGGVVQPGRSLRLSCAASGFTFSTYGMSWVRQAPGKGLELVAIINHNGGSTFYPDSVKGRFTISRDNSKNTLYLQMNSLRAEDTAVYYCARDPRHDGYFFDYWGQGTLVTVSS VL: DIQMTQSPSSLSASVGDRVTITCRASEDIYDRLAWYQQKPGKAPNLLVSGATSLESGVPSRFSGSGSGKDYTLTISSLQPEDFATYYCQQYWSVPWTFGGGTKVEIKR    0.0685
4) PP10765 (antibody, human IgG4 S228P, kappa, V domains shown, Humanized, human IgG4/kappa; also called VH6666/VL6667) VH: EVQLVESGGGLVQPGGSLRLSCAASGFTFSTYGMSWVRQAPGKGLELVAIINHNGGSTFYPDSVKGRFTVSRDNSKNTLYLQMNSLRAEDTAVYYCARDPRHDGYFFDYWGQGTLVTVSS VL: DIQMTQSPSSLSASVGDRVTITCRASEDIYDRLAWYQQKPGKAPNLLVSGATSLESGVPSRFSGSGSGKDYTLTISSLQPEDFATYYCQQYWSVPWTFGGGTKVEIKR    0.088
5) PP10764 (antibody, human IgG4 S228P, kappa, V domains shown, Humanized, human IgG4/kappa; also called VH6666/VL6666) VH: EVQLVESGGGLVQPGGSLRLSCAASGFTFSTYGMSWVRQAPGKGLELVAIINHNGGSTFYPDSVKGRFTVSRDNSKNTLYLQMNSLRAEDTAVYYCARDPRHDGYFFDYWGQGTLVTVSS VL: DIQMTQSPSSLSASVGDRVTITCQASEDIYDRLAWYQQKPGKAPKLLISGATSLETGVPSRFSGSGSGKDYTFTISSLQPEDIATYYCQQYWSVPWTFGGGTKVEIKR    0.0725
